Test system: Hek293T
Assay: Primary qHTS to identify gynecologic anti-cancer compounds using libraries of approved drugs and bioactive compounds (AID 1345084); note: nearly all actives have a fitted effect of over 55% in size
Conditions: Gynecologic cancer cell panel viability, ATPlite luminescence, 48 h, control line for the selectivity index; series mostly up to 57.5 µM
Description: National Center for Advancing Translational Sciences [NCATS] Assay Overview: Chemotherapeutic drug responses vary from cancer to cancer and from patient to patient. […] ATPlite is a luminescence based assay reliant on the conversion of a luciferase substrate to light in the presence of ATP. As a cytotoxic compound will suppress growth and decrease the number of cells, the concentration of ATP will decrease, and less light signal will be detected in the well. […]
Records with an inconclusive call do not appear. Calls of active or inactive are those of the source. Calls come from the whole dose curve; as a rule, active = well fitted cell-killing curve with a large enough effect; inconclusive = small, poorly fitted or top-dose-only effect, or effect the other way; inactive = flat fitted curve, though single readings scatter.
Your response should consist of one outcome taken from active, inactive

Exercise: Hi, do you know how COc1c2c(c(C)c3c1C(=O)OC3)O[C@@]1(C)C[C@@H](OC(C)=O)[C@]34O[C@](OC)(CC[C@]3(C)[C@H]1C2)OC4(C)C came out in this test?
Key: inactive

Exercise: Request: O=C(Nc1ccc(CN2CCOCC2)cc1)c1ccc(-c2cccc(Cl)c2)o1
Key: inactive

Exercise: Request: Cn1ccc(NC(=O)c2cc(Oc3ccc(C(=O)N4CCC4)c(F)c3)c3c(c2)OC(C)(C)C3)n1
Key: inactive

Exercise: Request: CC1CCCC[C@H]2C(=O)C=C[C@H](O)[C@@H]2CC(=O)O1 (stereo not given in full)
Key: active

Exercise: Request: COc1ccc([C@H]2Cc3cccc(O)c3C(=O)O2)cc1OC
Key: inactive
